Source: patent US20250051467A1

SYSTEM TESTED: T1, human CD40 with C-terminal Flag tag on HEK293 cells (human, UniProt P25942 21-277)
T1 construct: whole, on cells; also called HEK293 cells highly expressing CD40; cell strain highly expressing human CD40
T1 sequence (P25942 other isoform, or with tags, fused parts or gaps): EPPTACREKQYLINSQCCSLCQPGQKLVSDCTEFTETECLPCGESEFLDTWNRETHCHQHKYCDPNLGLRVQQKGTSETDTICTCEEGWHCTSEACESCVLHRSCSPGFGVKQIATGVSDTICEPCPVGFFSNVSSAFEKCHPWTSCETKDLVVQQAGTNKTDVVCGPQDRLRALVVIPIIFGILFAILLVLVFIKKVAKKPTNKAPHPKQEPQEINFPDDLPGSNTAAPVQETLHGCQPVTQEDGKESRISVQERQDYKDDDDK
EXPERIMENT NOTES: FACS, HEK293 cells transiently expressing human CD40
Recorded Emax (MFI), one value per entry.
The reply should contain only the number, in MFI.

Use these answered entries as a reference point.
INSERT INTO results (binder, quantity_unit, data_value) VALUES
  ('A297V3-Fc (Fc fusion) EVQLVESGGGLVQPGGSLRLSCAASGFTFSRYGMKWVRQAPGKGLEWVSTINSHGDTTYYADSVKGRFTISRDNAKNSLYLQMNSLRAEDTAVYYCLRIDYSDYSSRGQGTLVTVSSEPKSADKTHTCPPCPAPELLGGPSVFLFPPKPKDTLMISRTPEVTCVVVDVEHEDPEVKFNWYVDGVEVHNAKTKPREEQYNSTYRVVSVLTVLHQDWLNGKEYKCKVSSKAFPAPIEKTISKAKGQPREPQVYTLPPSRDELTKNQVSLTCLVKGFYPSDIAVEWESNGQPENNYKTTPPVLDSDGSFFLYSKLTVDKSRWQQGNVFSCSVMHEALHNHYTQKSLSLSPGK', 'MFI', 12800),
  ('A297V1-Fc (Fc fusion) QVQLVESGGGVVQPGGSLRLSCAASGFTFSRYGMKWVRQAPGKGLEWVSTINSHGDTTYYADSVKGRFTISRDNAKNSLYLQMNSLRAEDTALYYCARIDYSDYSSRGQGTMVTVSSEPKSADKTHTCPPCPAPELLGGPSVFLFPPKPKDTLMISRTPEVTCVVVDVEHEDPEVKFNWYVDGVEVHNAKTKPREEQYNSTYRVVSVLTVLHQDWLNGKEYKCKVSSKAFPAPIEKTISKAKGQPREPQVYTLPPSRDELTKNQVSLTCLVKGFYPSDIAVEWESNGQPENNYKTTPPVLDSDGSFFLYSKLTVDKSRWQQGNVFSCSVMHEALHNHYTQKSLSLSPGK', 'MFI', 7300),
  ('A12V2-Fc (Fc fusion) EVQLVESGGGLVQPGGSLRLSCAASGFTFSNYGMKWVRQAPGKGLEWVSTILSQGGSTYYADSVKGRFTISRDNAKNSLYLQMNSLRAEDTALYYCLRVDWSDYSPRGQGTQVTVSSEPKSADKTHTCPPCPAPELLGGPSVFLFPPKPKDTLMISRTPEVTCVVVDVEHEDPEVKFNWYVDGVEVHNAKTKPREEQYNSTYRVVSVLTVLHQDWLNGKEYKCKVSSKAFPAPIEKTISKAKGQPREPQVYTLPPSRDELTKNQVSLTCLVKGFYPSDIAVEWESNGQPENNYKTTPPVLDSDGSFFLYSKLTVDKSRWQQGNVFSCSVMHEALHNHYTQKSLSLSPGK', 'MFI', 16600);

Continue with the binder presented below.
Entry under test: A297V2-Fc (Fc fusion) QVQLVESGGGVVQPGGSLRLSCAASGFTFSRYGMKWVRQAPGKGLEWVSTINSHGDTTYYADSVKGRFTISRDNAKNSLYLQMNSLRAEDTALYYCLRIDYSDYSSRGQGTMVTVSSEPKSADKTHTCPPCPAPELLGGPSVFLFPPKPKDTLMISRTPEVTCVVVDVEHEDPEVKFNWYVDGVEVHNAKTKPREEQYNSTYRVVSVLTVLHQDWLNGKEYKCKVSSKAFPAPIEKTISKAKGQPREPQVYTLPPSRDELTKNQVSLTCLVKGFYPSDIAVEWESNGQPENNYKTTPPVLDSDGSFFLYSKLTVDKSRWQQGNVFSCSVMHEALHNHYTQKSLSLSPGK . Its Emax (MFI) was 12800
